# primary supernatant functional assay (% inh.), NF-kB luciferase reporter per record follows
Biological target: T1, human IL-1RAcP on 293T/17-FR cells (human, UniProt Q9NPH3 21-570)
T1 sequence (looked up): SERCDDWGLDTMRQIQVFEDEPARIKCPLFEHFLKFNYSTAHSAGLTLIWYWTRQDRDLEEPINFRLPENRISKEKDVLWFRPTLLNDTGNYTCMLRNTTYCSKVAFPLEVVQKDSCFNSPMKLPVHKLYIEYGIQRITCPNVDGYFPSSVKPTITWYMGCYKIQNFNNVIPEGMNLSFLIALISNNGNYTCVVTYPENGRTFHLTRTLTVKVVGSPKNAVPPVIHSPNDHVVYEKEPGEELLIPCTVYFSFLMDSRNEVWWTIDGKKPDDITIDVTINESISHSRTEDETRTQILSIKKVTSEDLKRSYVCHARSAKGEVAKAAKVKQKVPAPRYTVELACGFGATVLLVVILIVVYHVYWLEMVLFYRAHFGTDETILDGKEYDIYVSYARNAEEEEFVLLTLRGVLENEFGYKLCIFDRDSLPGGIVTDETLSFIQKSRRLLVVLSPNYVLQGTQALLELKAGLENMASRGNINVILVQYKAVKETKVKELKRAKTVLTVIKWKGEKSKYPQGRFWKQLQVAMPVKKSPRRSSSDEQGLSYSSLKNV
Assay: cell-based or functional assay
# value in %; strip the unit string

binder	value-observed
P013.S.01.B.B04 (antibody, V domains shown, rabbit monoclonal antibody; also called P013.A.00086.E02) VH: QSVEESGGRLVTPGTPLTLTCTVSGIDLDNYAMGWVRQAPGKGLEYIGVISSDGFFYDASWAKGRFTISKASSTTVDLKMTGLTPEDTATYFCARDRGTSTGSLDLWGQGTLVTVSS VL: ALVMTQTPASVSEPVGGTVTIKCQASENIGNGLAWYQQKPGQPPNLLIYGASTLASGVPSRFSGSGYGTEFTLTVSDLESGDAATYYCQCTYWNPDYIGGAFGGGTEVVVT	97

query: Item P013.S.01.B.G05 (antibody, V domains shown, rabbit monoclonal antibody; also called P013.A.00088.C10) VH: LEQSGGGAEGGLVKPGGSLELCCKASGFSLSSAYWICWVRQAPGKGLEWVGCIYADSSSITYYASWVNGRFTLSRDIDQSTGCLQLNSLTAADTAMYYCARDYGGSGYNFNLWGQGTLVTVSS VL: ALVMTQTPSPVSAAVGGTVTISCQASEDIYSNLAWYQQKRGQPPKLLIYYASTLASGVPSRFSGSGSGTEFTLTISGLQSDDAATYYCLGVCTYINANGWDNAFGGGTEVVVK has what recorded primary supernatant functional assay (% inh.), NF-kB luciferase reporter?
result: 81
